Test: DAX1 (NR0B1) inhibitors on StAR promoter, primary screen, cell-based, luminescence, SF-1 (NR5A1), full-length DAX-1 (AID 652010);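 further: 0% = DAX-1 cells with DMSO and 100% = cells lacking DAX-1 with DMSO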
Conditions: HEK293T StAR-luciferase reporter, SF-1/DAX-1 repression relief; at 6.8 µM; stronger effect = higher value
Out of some 370,000 compounds screened, about 4,100 (1.1%) were called active. The list comes from a sample in which actives are over-represented; it also holds close analogues and randomly drawn compounds.
# inhibition annotations
reportedProperty: inhibition (%)

• O=C(Nc1nonc1-c1ccc(Cl)cc1)c1ccco1 = -0.6
• COc1ccc(CCNC(=O)COC(=O)Cc2cccc(F)c2)cc1 = 2.2
• O=C(Nc1ccc2ccccc2c1[N+](=O)[O-])c1ccccc1 = 5
• Cc1ccc(NC(=O)c2oc3ccccc3c2C)c([N+](=O)[O-])c1 = 0.06
• O=C(Nc1ccc(NC(=O)c2cccs2)cn1)c1ccco1 = 5.96
• COc1ccc(/C=C2\CC3(OC(C)=O)CCCN2C3)cc1 (configuration not stated) = 1.13
• O=C(Oc1ccc(-c2nnco2)cc1)c1ccc(F)c(S(=O)(=O)N2CCOCC2)c1 = -0.14
• CC1CCN(C(=O)CCNC(=O)c2ccccc2)CC1 = 0.21
• CC1CCCN(c2ccc(C(=O)NCCc3ccccc3)cn2)C1 (configuration not stated) = 5.59
• Brc1ccc2nc(N3CCCC3)sc2c1 = 7.95
• Cc1nc(N2CCCCC2)sc1C=O = 0.27
• CN(C)c1ccc(NC(=O)c2ccncc2)c2ccccc12 = -0.26

====

# inhibition annotations
Assay: DAX1 (NR0B1) inhibitors on StAR promoter, primary screen, cell-based, luminescence, SF-1 (NR5A1), full-length DAX-1 (AID 652010);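 further: 0% = DAX-1 cells with DMSO and 100% = cells lacking DAX-1 with DMSO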
Settings: HEK293T StAR-luciferase reporter, SF-1/DAX-1 repression relief; at 6.8 µM; stronger effect = higher value
Hit rate of the full screen: of about 370,000 compounds, about 4,100 (1.1%) were called active. This excerpt belongs to a sample that is enriched for actives.
reportedProperty: inhibition (%)

• COc1ccc(-c2onc(C)c2-c2ccc3c(c2)OCCO3)c(O)c1 = -0.75
• COc1ccc(-c2ccc(CN3C(CC(C)C)C(=O)N(Cc4cn(CC5CCCCC5)nn4)CCS3(=O)=O)cc2)cn1 (centres undefined) = 3.92
• COCC(=O)N[C@@H]1C[C@@H]2O[C@@H](CO)CC[C@@H]2O[C@@H]1CCc1ccc(-c2ccccc2)cc1 = -0.14
• COc1ccc(-c2ccc(CN3C(CC(C)C)C(=O)N(Cc4cn(CC5CCCCC5)nn4)CCS3(=O)=O)cc2)cc1 (centres undefined) = 2.67

====

Experiment: DAX1 (NR0B1) inhibitors on StAR promoter, primary screen, cell-based, luminescence, SF-1 (NR5A1), full-length DAX-1 (AID 652010);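 further: 0% = DAX-1 cells with DMSO and 100% = cells lacking DAX-1 with DMSO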
Conditions: HEK293T StAR-luciferase reporter, SF-1/DAX-1 repression relief; at 6.8 µM; stronger effect = higher value
Out of some 370,000 compounds screened, about 4,100 (1.1%) were called active. Many of the other results were omitted from the sample, so actives are more common in it than they were.
reportedProperty: inhibition

* Cc1ccccc1C(=O)N[C@H](C(=O)N1CCC[C@H]1C(=O)NCc1ccccc1)C(C)C | 0.49% (inactive)
* CCOc1cccc(/C=C/c2ccc3ccccc3n2)c1OC(C)=O | 5.71% (active)
* O=C(CSc1nnc(COc2ccccc2)n1Cc1ccco1)c1ccc2ccccc2c1 | -1.45% (inactive)
* CCOc1ccccc1-c1cc(C(=O)N/N=C(\C)c2cccnc2)c2ccccc2n1 | 1.24% (inactive)
* COC(=O)[C@]12C[C@H](CC(=O)NCc3cccs3)C(=O)N(CCc3ccc(OC)c(OC)c3)C1=C[C@H](C(C)C)O[C@@H]2C1CC1 | 0.43% (inactive)
* CCC(NC(=O)C1C2C=CC3(CN(Cc4ccccc4)C(=O)C13)O2)c1ccccc1 (centres undefined) | -0.13% (inactive)
* CCOc1ccc(-n2c(SCC(=O)Nc3cc(C)c(NC(=O)c4ccccc4)cc3OC)nnc2-c2cccc(Cl)c2)cc1 | -2.96% (inactive)
* CN(CCc1ccccc1)C(=O)Cn1nc(-c2ccccc2)ccc1=O | -1.5% (inactive)
* CNC(=O)c1[nH]cnc1C(=O)N[C@@H](CC(C)C)C(=O)OC(C)(C)C | -0.49% (inactive)
